- Tested on: Escherichia coli β-galactosidase + β-glucuronidase
- Experiment: Enzymatic cleavage assay, Method 4
- Assay type: biochemical
- Condition set: PBS pH 7.4, 37° C., HPLC, read-out: TG release t1/2(min)
Readout type: half-life at 100 μM

compound="CC(C)(C)OC(=O)N[C@H](Cc1ccc(OS(=O)(=O)Oc2ccccc2O[C@@H]2O[C@H](COC3O[C@H](C(=O)O)[C@@H](O)[C@H](O)[C@H]3O)[C@H](O)[C@H](O)[C@H]2O)cc1)C(=O)O (stereo partly shown)" result="< 5 min"

----------
- System: Escherichia coli β-glucuronidase (Escherichia coli, UniProt P05804)
- Construct: purchased Sigma G7396
- Sequence (P05804 whole entry): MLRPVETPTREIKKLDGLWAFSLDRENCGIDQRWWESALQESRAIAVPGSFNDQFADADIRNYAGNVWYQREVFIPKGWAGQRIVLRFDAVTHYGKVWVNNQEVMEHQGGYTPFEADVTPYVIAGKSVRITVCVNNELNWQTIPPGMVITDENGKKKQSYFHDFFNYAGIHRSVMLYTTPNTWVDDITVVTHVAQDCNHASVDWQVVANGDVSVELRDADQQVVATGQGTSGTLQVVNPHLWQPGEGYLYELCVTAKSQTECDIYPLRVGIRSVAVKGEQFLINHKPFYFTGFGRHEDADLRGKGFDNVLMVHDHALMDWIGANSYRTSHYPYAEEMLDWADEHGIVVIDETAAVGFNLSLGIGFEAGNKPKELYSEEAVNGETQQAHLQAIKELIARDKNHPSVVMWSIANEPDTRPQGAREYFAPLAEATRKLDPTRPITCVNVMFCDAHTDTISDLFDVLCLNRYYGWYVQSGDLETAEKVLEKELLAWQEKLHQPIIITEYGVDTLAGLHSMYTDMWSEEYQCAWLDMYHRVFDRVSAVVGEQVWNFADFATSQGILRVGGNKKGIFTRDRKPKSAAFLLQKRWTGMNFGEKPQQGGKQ
- Experiment: Enzymatic cleavage assay, Method 3
- Type: biochemical
- Condition set: Escherichia coli β-glucuronidase (Sigma G7396) in PBS buffer, PBS pH 7.4, 37° C., HPLC, read-out: TG release t1/2(min)
Readout type: half-life at 100 μM (min)

molecule="CC(C)(C)OC(=O)N[C@H](Cc1ccc(OS(=O)(=O)Oc2ccccc2O[C@@H]2O[C@H](COC3O[C@H](C(=O)O)[C@@H](O)[C@H](O)[C@H]3O)[C@H](O)[C@H](O)[C@H]2O)cc1)C(=O)O (some centres unmarked)" readout_type="half-life at 100 μM" inequality_operator=< numeric_readout=5
molecule="CC(C)(C)OC(=O)NC(Cc1ccc(OS(=O)(=O)Oc2ccccc2O[C@@H]2O[C@H](CO)[C@H](O)[C@H](O)[C@H]2O)cc1)C(=O)O (some centres unmarked)" readout_type="half-life at 100 μM" inequality_operator== numeric_readout=0.43

----------
Some compounds, each annotated with its measured half-life at 100 μM.
- System: Escherichia coli β-galactosidase (Escherichia coli, UniProt P00722)
- Sequence (P00722 2-1024): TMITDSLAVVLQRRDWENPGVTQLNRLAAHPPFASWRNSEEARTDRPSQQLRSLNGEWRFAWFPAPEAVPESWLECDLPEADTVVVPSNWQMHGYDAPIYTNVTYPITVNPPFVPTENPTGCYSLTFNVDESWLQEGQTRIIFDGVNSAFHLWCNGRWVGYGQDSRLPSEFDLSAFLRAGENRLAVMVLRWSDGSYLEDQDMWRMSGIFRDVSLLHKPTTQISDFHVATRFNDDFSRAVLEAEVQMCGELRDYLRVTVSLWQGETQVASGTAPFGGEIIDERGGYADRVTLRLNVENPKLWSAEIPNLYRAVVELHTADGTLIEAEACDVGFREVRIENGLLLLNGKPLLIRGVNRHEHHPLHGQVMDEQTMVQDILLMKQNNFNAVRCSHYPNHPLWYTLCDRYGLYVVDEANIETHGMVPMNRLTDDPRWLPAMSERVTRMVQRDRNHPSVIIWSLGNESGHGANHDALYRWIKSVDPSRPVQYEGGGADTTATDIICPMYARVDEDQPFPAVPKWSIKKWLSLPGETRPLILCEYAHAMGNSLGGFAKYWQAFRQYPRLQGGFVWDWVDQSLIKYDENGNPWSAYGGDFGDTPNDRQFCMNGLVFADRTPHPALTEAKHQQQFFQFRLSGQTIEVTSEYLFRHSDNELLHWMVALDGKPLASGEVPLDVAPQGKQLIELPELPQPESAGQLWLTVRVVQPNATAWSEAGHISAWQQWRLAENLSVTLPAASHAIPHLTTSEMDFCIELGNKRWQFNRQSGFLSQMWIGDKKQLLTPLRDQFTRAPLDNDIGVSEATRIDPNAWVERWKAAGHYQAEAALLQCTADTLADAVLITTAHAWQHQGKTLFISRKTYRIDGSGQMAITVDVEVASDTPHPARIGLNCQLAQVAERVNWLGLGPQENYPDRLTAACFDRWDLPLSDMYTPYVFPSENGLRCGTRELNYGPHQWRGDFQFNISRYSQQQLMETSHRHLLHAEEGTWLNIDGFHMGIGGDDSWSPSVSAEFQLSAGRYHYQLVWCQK
- Experiment: in vitro
- Condition set: recombinant enzyme, pH 7.4
- Description: Method 1. Escherichia coli β-galactosidase MPS used as a standard material was dissolved in PBS buffer solution to make 500 uM solution. […] This was followed by the addition of enzyme solution (14 μL of 1 mg/mL). […] Then, the remaining compound of the present invention or MPS, and a material liberated by the enzyme reaction were quantitatively analyzed by HPLC.
Readout type: half-life at 100 μM

compound="CC/C(=C(\\c1ccccc1)c1ccc(OCC[N+](C)(C)Cc2c(OC)cc(OS(=O)(=O)Oc3cc(C(=O)NCCOCCOCCOCCN=[N+]=[N-])ccc3OC3O[C@H](CO)[C@H](O)[C@H](O)[C@H]3O)cc2OC)cc1)c1ccccc1 (stereo partly drawn) [Compound B-11]" result="< 5 min"
compound="CCC(C)[C@H]([C@H](CC(=O)N1CCC[C@@H]1[C@@H](OC)[C@H](C)C(=O)NC(Cc1ccccc1)C(=O)O)OC)N(C)C(=O)[C@H](NC(=O)[C@@H](C(C)C)N(C)C(=O)OCc1ccc(OS(=O)(=O)Oc2cc(C(=O)NCCOCCOCCOCCN=[N+]=[N-])ccc2O[C@H]2O[C@H](CO)[C@H](O)[C@H](O)[C@H]2O)cc1)C(C)C (stereo partly drawn) [Compound B-3]" result="< 10 min"
compound="Cc1cn([C@H]2CC(O)[C@@H](CO)O2)c(=O)nc1OCc1ccc(OS(=O)(=O)Oc2ccccc2O[C@@H]2O[C@H](CO)[C@H](O)[C@H](O)[C@H]2O)cc1 (stereo partly drawn) [Compound A-13]" result="< 5 min"
compound="CCc1c2c(nc3ccc(OS(=O)(=O)Oc4cc(C(=O)NCCOCCOCCOCCN=[N+]=[N-])ccc4O[C@@H]4O[C@H](CO)[C@H](O)[C@H](O)[C@H]4O)cc13)-c1cc3c(c(=O)n1C2)COC(=O)[C@]3(O)CC [Compound B-2]" result="0.28 min"
compound="O=C(OCCc1cccnc1)OCc1ccc(OS(=O)(=O)Oc2ccccc2O[C@@H]2O[C@H](CO)[C@H](O)[C@H](O)[C@H]2O)cc1 [Compound A-9]" result="< 5 min"
compound="Nc1nc(OCc2ccc(OS(=O)(=O)Oc3ccccc3OC3O[C@H](CO)[C@H](O)[C@H](O)[C@H]3O)cc2)c2ncn([C@@H]3O[C@H](CO)C(O)[C@@H]3O)c2n1 (stereo partly drawn) [Compound A-4]" result="< 5 min"

----------
- System: Escherichia coli β-galactosidase (Escherichia coli)
- Experiment: in vitro
- Condition set: recombinant enzyme, pH 5
Readout type: half-life at 100 μM (min)

molecule="CCc1c2c(nc3ccc(OS(=O)(=O)Oc4cc(C(=O)NCCOCCOCCOCCN=[N+]=[N-])ccc4O[C@@H]4O[C@H](CO)[C@H](O)[C@H](O)[C@H]4O)cc13)-c1cc3c(c(=O)n1C2)COC(=O)[C@]3(O)CC [Compound B-2]" readout_type="half-life at 100 μM" numeric_readout=5.75
